Field: EC50. Provide a value for each of the molecules that follow.
- TARGET DESC: recombinant human mGluR2 (Homo sapiens)
- Sequence (Q14416 19-872): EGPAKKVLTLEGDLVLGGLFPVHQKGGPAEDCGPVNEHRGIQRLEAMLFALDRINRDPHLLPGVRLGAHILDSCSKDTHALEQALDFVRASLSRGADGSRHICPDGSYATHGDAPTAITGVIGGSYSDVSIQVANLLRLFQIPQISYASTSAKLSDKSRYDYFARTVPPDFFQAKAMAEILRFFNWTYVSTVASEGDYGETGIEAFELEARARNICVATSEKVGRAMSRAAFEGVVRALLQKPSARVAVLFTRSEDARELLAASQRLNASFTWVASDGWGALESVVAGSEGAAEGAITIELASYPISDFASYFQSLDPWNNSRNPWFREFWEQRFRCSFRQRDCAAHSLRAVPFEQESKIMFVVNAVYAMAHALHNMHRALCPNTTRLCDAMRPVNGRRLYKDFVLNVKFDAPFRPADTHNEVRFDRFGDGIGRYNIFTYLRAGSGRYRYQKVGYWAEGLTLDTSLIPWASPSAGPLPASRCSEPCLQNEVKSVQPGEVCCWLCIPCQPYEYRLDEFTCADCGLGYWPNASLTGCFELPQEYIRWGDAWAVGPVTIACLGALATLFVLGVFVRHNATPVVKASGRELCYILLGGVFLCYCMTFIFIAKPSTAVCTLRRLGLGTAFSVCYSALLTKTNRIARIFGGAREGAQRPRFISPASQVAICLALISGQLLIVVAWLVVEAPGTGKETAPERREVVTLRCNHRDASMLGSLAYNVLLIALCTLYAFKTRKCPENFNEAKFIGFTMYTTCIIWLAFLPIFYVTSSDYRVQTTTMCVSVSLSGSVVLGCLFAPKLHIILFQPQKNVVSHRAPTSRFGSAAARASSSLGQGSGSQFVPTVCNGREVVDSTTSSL
- MEASUREMENT DESCRIPTION: FLIPR Ca2+ mobilization assay, potentiation of glutamate response
- TEST SETTINGS: CHO dhfr- cells expressing human mGluR2 and Gα16, EC20 glutamate (900 nM)
Write the number in nM without appending the unit.

Prompt: Quickly give me recorded EC50 for N#CC1CC=C(c2ccc3c(nnn3CC3CC3)c2Cl)CC1 (centres unmarked)
Response: 701

Prompt: Quickly give me recorded EC50 for CN1C(=O)CN(CC2CC=C(c3ccc4c(nnn4CC4CC4)c3Br)CC2)C1=O (centres unmarked)
Response: 9.2

Prompt: Quickly give me recorded EC50 for CN1C(=O)CN(CC2CC=C(c3ccc4c(nnn4CC4CC4)c3Cl)CC2)C1=O (centres unmarked)
Response: 17

Prompt: Quickly give me recorded EC50 for COC(=O)C1CC=C(c2ccc3c(nnn3CC3CC3)c2C(F)(F)F)CC1 (centres unmarked)
Response: 31

Prompt: Quickly give me recorded EC50 for `Clc1c(C2=CCCCC2)ccc2c1nnn2CC1CC1`
Response: 947

Prompt: Quickly give me recorded EC50 for OCC1CC=C(c2ccc3c(nnn3CC3CC3)c2Br)CC1 (centres unmarked)
Response: 52

Prompt: Quickly give me recorded EC50 for CN1CC(c2ccc3c(nnn3CC(C)(C)C)c2Br)=CCC1CO (centres unmarked)
Response: 1560

Prompt: Quickly give me recorded EC50 for COC(=O)C1CC=C(c2ccc3c(nnn3CC3CC3)c2Cl)CC1 (centres unmarked)
Response: 373

Prompt: Quickly give me recorded EC50 for OCC1CC=C(c2ccc3c(nnn3CC3CC3)c2Cl)CC1 (centres unmarked)
Response: 77

Prompt: Quickly give me recorded EC50 for CN1C(=O)CN(CC2CC=C(c3ccc4c(nnn4CC4CC4)c3C(F)(F)F)CC2)C1=O (centres unmarked)
Response: 15

Prompt: Quickly give me recorded EC50 for OC1CC=C(c2ccc3c(nnn3CC3CC3)c2Cl)CC1 (centres unmarked)
Response: 408
